The reported measurements were obtained from paper PMC11739741.

Measurement description: SSZ/GLPG3970 DDI study: plasma pharmacokinetics
Assay type: in vivo, human
Experimental setup: human, plasma, oral, 1000 mg, C max, geometric LS mean (95% CI), SSZ 1,000 mg alone, Day 1 (n = 8)
Parameter: Cmax (ng/mL)
Numbers only, in ng/mL.

{"Compound": "O=C(O)c1cc(/N=N/c2ccc(S(=O)(=O)Nc3ccccn3)cc2)ccc1O [SSZ, sulfasalazine, reference compound]", "Reported value": 7270}

Now consider a different compound.
Note to self: Cmax recorded for Nc1ccc(S(=O)(=O)Nc2ccccn2)cc1 was 5680

---

Measurement description: SSZ/GLPG3970 DDI study: plasma pharmacokinetics
Format: in vivo, human
Experimental setup: human, plasma, oral, AUC0–∞, geometric LS mean (95% CI), GLPG3970 350 mg 2 h after SSZ 1,000 mg, Day 9 (n = 7)
Parameter: AUC(0-inf)
Field note: include the unit after the figure.

{"Molecule": "O=C(O)c1cc(/N=N/c2ccc(S(=O)(=O)Nc3ccccn3)cc2)ccc1O [SSZ, sulfasalazine, reference compound]", "Reported value": "110 µg·h/mL"}

Now let's try a different one.
Field AUC(0-inf) (entry Nc1ccc(S(=O)(=O)Nc2ccccn2)cc1 ) reads 112 µg·h/mL
